Where these numbers come from: PubChem BioAssay (Tox21)

assay: Human pregnane X receptor (PXR) small molecule agonists, qHTS cell viability counter screen (AID 1346977); details: PXR-Luc HepG2 viability, CellTiter-Fluor, 24 h; series mostly up to 92.4 µM; further: nearly all actives have a fitted effect of over 50% in size
Results filed as inconclusive are left out. Activity calls are given as the source filed them. The call rests on the fitted dose curve; in most records, active means well fitted cell-killing curve with a large enough effect in the repeat runs; inconclusive means weak or mixed curves, or effect the other way; inactive means flat fitted curve, though single readings scatter.
Respond using exactly one of the listed classes: active, inactive

Below, 10 molecules whose answers are already recorded.
O=S(=O)(O)CCCN1CCOCC1
inactive
Cc1cccc(N(C)C)c1
inactive
Clc1nc2ccccc2s1
inactive
CCCCCCCCCCCCCOP(=O)(O)O
inactive
CC1(C)COCN1
inactive
CC(C)c1ccccc1N
inactive
O[C@@H](c1cc(C(F)(F)F)nc2c(C(F)(F)F)cccc12)[C@H]1CCCCN1
active
Oc1cc2ccccc2cc1O
inactive
O=C(Nc1ccc(Cl)c(Cl)c1)c1cc(Cl)cc(Cl)c1O
active
CS(C)(=O)=O
inactive

We now examine a further molecule.
In: Test call for this molecule, please: O=Nc1ccc(NO)cc1
Out: inactive
